All figures here come from PubChem BioAssay.

assay: binders of probe aFSTL3 on microarray, primary screen, stem cell growth factor project, biochemical, small-molecule microarray, fluorescence 635/667 (AID 1064); conditions: higher = more signal;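 further: measures binding of the biotinylated anti-FSTL3 antibody to printed compounds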
measured_metric: composite z-score
Just the number, please.

* COC(=O)C(CC#Cc1ccc2c(c1)[C@]1(C(=O)N2)[C@H](C(=O)NC[C@H](O)c2ccccc2)[C@H]2C(=O)O[C@H](c3ccccc3)[C@H](c3ccccc3)N2[C@@H]1c1ccc(OCCO)cc1)C(=O)OC | 1.4

Moving on to the next compound.
Query :: Give its composite z-score value. Item: COC(=O)C(CC#Cc1ccc2c(c1)[C@]1(C(=O)N2)[C@H](c2ccc(OCCO)cc2)N2[C@H](c3ccccc3)[C@H](c3ccccc3)OC(=O)[C@H]2[C@@H]1C(=O)NC[C@H](O)c1ccccc1)C(=O)OC
Result :: 0.194
